System: Acetylcholinesterase (Homo sapiens, UniProt P22303) | Read-out: pIC50
Sequence (P22303 whole entry): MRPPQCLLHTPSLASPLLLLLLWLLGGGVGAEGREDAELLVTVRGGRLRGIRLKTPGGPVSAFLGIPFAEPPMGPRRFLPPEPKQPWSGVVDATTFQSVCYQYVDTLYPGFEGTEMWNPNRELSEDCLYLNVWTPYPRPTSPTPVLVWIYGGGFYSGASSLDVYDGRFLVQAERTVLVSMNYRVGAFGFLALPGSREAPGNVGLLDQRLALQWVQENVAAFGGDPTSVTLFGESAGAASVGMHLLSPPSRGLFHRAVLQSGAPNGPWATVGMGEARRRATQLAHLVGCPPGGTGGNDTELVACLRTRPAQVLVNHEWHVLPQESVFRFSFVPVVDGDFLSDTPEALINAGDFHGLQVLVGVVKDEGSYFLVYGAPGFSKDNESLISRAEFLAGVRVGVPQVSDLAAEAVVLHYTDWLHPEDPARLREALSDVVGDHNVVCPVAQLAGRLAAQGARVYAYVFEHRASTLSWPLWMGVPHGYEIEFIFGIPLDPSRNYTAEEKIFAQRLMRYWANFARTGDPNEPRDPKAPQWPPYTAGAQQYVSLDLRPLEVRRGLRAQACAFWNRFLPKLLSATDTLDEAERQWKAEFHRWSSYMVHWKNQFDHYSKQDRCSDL
The value called pIC50 is obtained by taking minus log10 of the concentration in mol/L.

O=C1/C(=C/c2ccc(Cl)cc2)CN(C(=O)C[C@H]2C[C@H]3CCCN3[C@]23C(=O)Nc2ccccc23)C/C1=C\c1ccc(Cl)cc1 (racemic) = 5.47
Cc1ccc(/C=C2\CN(C(=O)C[C@H]3C[C@H]4CCCN4[C@]34C(=O)Nc3ccccc34)C[C@@]3(C[C@H]4CCCN4[C@@]34C(=O)Nc3ccccc34)C2=O)cc1 (racemic) = 4.71
O=C1/C(=C/c2ccccc2F)CN(C(=O)C[C@H]2C[C@H]3CCCN3[C@]23C(=O)Nc2ccccc23)C/C1=C\c1ccccc1F (racemic) = 4.46
C=CC(=O)N1C/C(=C\c2ccccc2Cl)C(=O)/C(=C/c2ccccc2Cl)C1 = 4.79

Given the compound C=CC(=O)N1C/C(=C\c2ccccc2)C(=O)/C(=C/c2ccccc2)C1 and test system Acetylcholinesterase (Homo sapiens, UniProt P22303), the measured pIC50 is 4.75

Summary: O=C(C[C@H]1C[C@H]2CCCN2[C@]12C(=O)Nc1ccccc12)N1C/C(=C\c2ccccc2F)C(=O)[C@]2(C[C@H]3CCCN3[C@@]23C(=O)Nc2ccccc23)C1 (racemic) , Acetylcholinesterase (Homo sapiens, UniProt P22303), pIC50 = 4.61

---

- target-system: Acetylcholinesterase (Homo sapiens, UniProt P22303)
# note: exactly 10 µM is not below, so it is Not met; use Met for IC50 strictly under it

These recorded examples may help you get a feel for the data.
O=C(C[C@H]1C[C@H]2CCCN2[C@]12C(=O)Nc1ccccc12)N1C/C(=C\c2ccc(Cl)cc2Cl)C(=O)[C@]2(C[C@H]3CCCN3[C@@]23C(=O)Nc2ccccc23)C1 (racemic) = Met
C=CC(=O)N1C/C(=C\c2ccc(F)cc2)C(=O)/C(=C/c2ccc(F)cc2)C1 = Not met
C=CC(=O)N1C/C(=C\c2cccc3ccccc23)C(=O)/C(=C/c2cccc3ccccc23)C1 = Not met
O=C(C[C@H]1C[C@H]2CCCN2[C@]12C(=O)Nc1ccccc12)N1C/C(=C\c2ccccc2Cl)C(=O)[C@]2(C[C@H]3CCCN3[C@@]23C(=O)Nc2ccccc23)C1 (racemic) = Not met
Cc1ccccc1/C=C1\CN(C(=O)C[C@H]2C[C@H]3CCCN3[C@]23C(=O)Nc2ccccc23)C/C(=C\c2ccccc2C)C1=O (racemic) = Not met

Consider now this further compound.
q: Is IC50 strictly under 10 µM for the entry O=C(C[C@H]1C[C@H]2CCCN2[C@]12C(=O)Nc1ccccc12)N1C/C(=C\c2ccc(Cl)cc2)C(=O)[C@]2(C[C@H]3CCCN3[C@@]23C(=O)Nc2ccccc23)C1 (racemic) ?
a: Met

---

- target-system: Acetylcholinesterase (Homo sapiens)
measurement-label: pIC50
Convention used: pIC50 is expressed as -log10 of the molar concentration.

For orientation, consider the following solved cases.
C=CC(=O)N1C/C(=C\c2ccccc2F)C(=O)/C(=C/c2ccccc2F)C1 = 4.93
O=C(C[C@H]1C[C@H]2CCCN2[C@]12C(=O)Nc1ccccc12)N1C/C(=C\c2ccccc2)C(=O)[C@]2(C[C@H]3CCCN3[C@@]23C(=O)Nc2ccccc23)C1 (racemic) = 4.71
O=C(C[C@H]1C[C@H]2CCCN2[C@]12C(=O)Nc1ccccc12)N1C/C(=C\c2cccc3ccccc23)C(=O)[C@]2(C[C@H]3CCCN3[C@@]23C(=O)Nc2ccccc23)C1 (racemic) = 4.69

Measured pIC50 (Acetylcholinesterase (Homo sapiens)), entry O=C1/C(=C/c2ccc(F)cc2)CN(C(=O)C[C@H]2C[C@H]3CCCN3[C@]23C(=O)Nc2ccccc23)C/C1=C\c1ccc(F)cc1 (racemic) : 4.70

Param item: O=C1/C(=C/c2ccccc2Cl)CN(C(=O)C[C@H]2C[C@H]3CCCN3[C@]23C(=O)Nc2ccccc23)C/C1=C\c1ccccc1Cl (racemic) ; param system: Acetylcholinesterase (Homo sapiens); output pIC50: 4.92

// returns pIC50 for C=CC(=O)N1C/C(=C\c2ccccc2OC)C(=O)/C(=C/c2ccccc2OC)C1 with Acetylcholinesterase (Homo sapiens); value = 5.06
